Here is a set of molecules with reported IC50 for Aurora kinase B (Homo sapiens), compiled from the literature.

Record excerpt, results attached:
CN1CCC(Oc2ccc(-c3n[nH]c4ccc(C(=O)NC(c5ccsc5)C5CCC5)cc34)cc2)CC1 (stereo not shown)
≤ 5000 nM
Cn1cc(Nc2ncc(Cl)c(N[C@@H]3COC4C3OC[C@@H]4NS(=O)(=O)CC3CC3)n2)cn1 (stereo partly shown)
24 nM

For the record `Cc1cc(Nc2nc(CC3(C(=O)O)CCN(C(=O)c4cccc(Cl)c4F)CC3)ccc2F)n[nH]1` , what value of IC50 is listed for Aurora kinase B (Homo sapiens)?
180 nM

For the record `COc1cc2c(Oc3ccc(NC(=O)c4ccccc4)cc3)ccnc2cc1OCC[C@H](NC(=O)OC(C)(C)C)C(=O)O` , what value of IC50 is listed for Aurora kinase B (Homo sapiens)?
< 2000 nM

For the record `c1ccc2c(-c3ccnc(Nc4ccc(N5CCNCC5)cc4)n3)c[nH]c2c1` , what value of IC50 is listed for Aurora kinase B (Homo sapiens)?
170 nM

For the record `O=C1Nc2ccccc2/C1=C\c1ccc2[nH]nnc2c1` , what value of IC50 is listed for Aurora kinase B (Homo sapiens)?
< 5000 nM

For the record `CN1CCN(c2cc(CN3CCN(C(=O)c4cccc(Cl)c4F)CC3)nc(Nc3nccs3)c2)C1=O` , what value of IC50 is listed for Aurora kinase B (Homo sapiens)?
230 nM

For the record `COc1cc2c(Oc3ccc(NC(=O)c4ccccc4)cc3)ccnc2cc1OCCC[C@H](N)C(=O)O` , what value of IC50 is listed for Aurora kinase B (Homo sapiens)?
< 2000 nM

For the record `NC(=O)[C@H]1[C@H]2C[C@H]3[C@H]1Nc1nc(ncc1F)Nc1cc(ccc1O)C(=O)CS[C@@H]3C2` , what value of IC50 is listed for Aurora kinase B (Homo sapiens)?
1000 to 6250 nM

For the record `O=C(c1cccc(Cl)c1F)N1C[C@H]2C[C@@H]1CN2Cc1cccc(Nc2nccs2)n1` , what value of IC50 is listed for Aurora kinase B (Homo sapiens)?
570 nM

For the record CC(C)(O)C1CCN(c2ccc(-c3n[nH]c4ccc(NC(=O)C(c5ccsc5)N5CCCC5)cc34)cc2)CC1 (stereo not shown) , what value of IC50 is listed for Aurora kinase B (Homo sapiens)?
≤ 5000 nM

For the record CN1CCC(Oc2ccc(-c3n[nH]c4ccc(C(=O)NC(c5ccccc5)C5CCCC5)cc34)cc2)CC1 (stereo not shown) , what value of IC50 is listed for Aurora kinase B (Homo sapiens)?
≤ 5000 nM

For the record `COc1cc2c(Oc3ccc(NC(=O)c4ccccc4)cc3F)ccnc2cc1OCC[C@H](N)C(=O)O` , what value of IC50 is listed for Aurora kinase B (Homo sapiens)?
< 2000 nM
